Measured values drawn from PubChem BioAssay AID1117319 for this set.

# target-entity: Virion infectivity factor (Human immunodeficiency virus type 1 group M subtype B (isolate BH10)) + Virion infectivity factor (Human immunodeficiency virus type 1 group M subtype B (isolate BRU/LAI)) + Virion infectivity factor (Human immunodeficiency virus type 1 group M subtype B (isolate PCV12)) + Virion infectivity factor (Human immunodeficiency virus type 1 group M subtype B (isolate HXB2)) + DNA dC->dU-editing enzyme APOBEC-3G (Homo sapiens) (UniProt P69720+P69721+P69722+P69723+Q9HC16)
# procedure-summary: HIV-1 Vif–A3G interaction blockers – biochemical, TR-FRET, GST-Vif 1-94, biotin-A3G peptide, dose response retest, primary screen (AID 1117319);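 also: Vif residues 1-94 fused to GST binding biotinylated APOBEC3G peptide 110-148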
# assay-conditions: TR-FRET GST-Vif / biotin-A3G peptide binding
Inconclusive results are not listed.
endpoint-label: pIC50
Worth noting: pIC50 values are minus log10 of concentrations stated in mol/L.

Some compounds with known pIC50 results, for comparison:
compound	endpoint-value
COc1ccccc1CNC(=O)COC(=O)c1cc(-c2ccco2)nc2ccccc12	5.00
CCN(CC)c1ccc(C(=C2C=CC(=[N+](CC)CC)C=C2)c2ccccc2)cc1	4.93
Cc1cc(O)c(Oc2cc(C)cc(O)c2O)c(O)c1	4.86
CCOc1ccccc1C(O)C1=CC(=O)c2ccccc2C1=O (stereo unspecified)	5.12
CN(C)N1C(N)=C(C#N)C(c2cccnc2)C2=C1CCCC2=O (stereo unspecified)	4.94
Nc1ccc2c(O)cc(S(=O)(=O)O)cc2c1	5.03
O=C1NC(=S)N(c2ccc(F)cc2)C(=O)/C1=C\c1ccoc1	4.73
COc1ccc2c(c1)CC1(CN2C)C(=O)NC(=O)N(c2ccc(C)cc2)C1=O (stereo unspecified)	4.23

INPUT: Bench note: what pIC50 did Cc1ccc2c(c1)C1C=CCC1C(C(=O)O)N2 (stereo unspecified) show?
OUTPUT: 6.02

INPUT: Given O=C(NCCCO)c1ccc2nc(-c3ccco3)c(-c3ccco3)nc2c1 , state its recorded pIC50.
OUTPUT: 6.14

INPUT: Any idea what its pIC50 is? The compound is O=c1cc(-c2ccccc2Cl)c2c([nH]1)CCC2
OUTPUT: 5.37

INPUT: Sample CC1OC(CC(=O)O)CC2=C1C(=O)c1c(O)cccc1C2=O (stereo unspecified) — what was its pIC50?
OUTPUT: 5.38

INPUT: pIC50 lookup needed for CCOc1cccc(=O)c2c(C)oc(C)c12 , thanks.
OUTPUT: 5.21

INPUT: Fill in: pIC50 of Cc1ccc(S(=O)(=O)Cn2nnnc2C(CC(C)C)N2CCN(C)CC2)cc1 (stereo unspecified) is ___
OUTPUT: 5.01

INPUT: Look at this compound and give its reported pIC50. COC(=O)c1ccccc1NC(=O)CCS(=O)(=O)c1ccc(Br)cc1
OUTPUT: 5.83

INPUT: Item under review: CC(C)(C)NC(=O)C(c1ccncc1)N(C(=O)CNC(=O)c1ccco1)c1ccc2c(c1)OCO2 (stereo unspecified) . Reported pIC50?
OUTPUT: 4.95

INPUT: Could you tell me which pIC50 is on file for Fc1ccccc1/C=C1\CCCC2=C1Nc1ncnn1C2c1ccccc1F (stereo unspecified) ?
OUTPUT: 4.42

INPUT: Could you tell me which pIC50 is on file for CCN(CC)Cc1cc(Nc2c3ccccc3nc3c4ccccc4n(C)c23)cc(CN(CC)CC)c1O ?
OUTPUT: 4.96

INPUT: Requested read-out: pIC50. Entry: Cc1noc(/C=C/c2ccco2)c1S(=O)(=O)N1CCC(C(=O)N2c3ccccc3CC2C)CC1 (stereo unspecified)
OUTPUT: 4.92

INPUT: # lookup: pIC50 of Oc1cc2c(cc1O)[C@@H](c1ccccc1)CNCC2
OUTPUT: 4.32

INPUT: Which value of pIC50 has been reported for COC(=O)c1ccc(COc2ccccc2/C=C(\C#N)C(=O)Nc2c(C)cc(C)cc2C)cc1 in the records?
OUTPUT: 4.64

----------
# target-entity: Virion infectivity factor (Human immunodeficiency virus type 1 group M subtype B (isolate BH10)) + Virion infectivity factor (Human immunodeficiency virus type 1 group M subtype B (isolate BRU/LAI)) + Virion infectivity factor (Human immunodeficiency virus type 1 group M subtype B (isolate PCV12)) + Virion infectivity factor (Human immunodeficiency virus type 1 group M subtype B (isolate HXB2)) + DNA dC->dU-editing enzyme APOBEC-3G (Homo sapiens) (UniProt P69720+P69721+P69722+P69723+Q9HC16)
# procedure-summary: HIV-1 Vif–A3G interaction blockers – biochemical, TR-FRET, GST-Vif 1-94, biotin-A3G peptide, dose response retest, primary screen (AID 1117319);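 also: Vif residues 1-94 fused to GST binding biotinylated APOBEC3G peptide 110-148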
# assay-conditions: TR-FRET GST-Vif / biotin-A3G peptide binding
Inconclusive results are not listed.
Let's look at some compounds and their measured IC50.

compound	IC50
COc1cccc(NC(=O)CSc2nnc(-c3ccco3)c(-c3ccco3)n2)c1	10.2 µM
CNC(=O)[C@@H]1C[C@H]1[C@@H](NC(=O)OCc1ccccc1)c1ccccc1	16.6 µM
C=C(C)C(=O)Nc1ccc2c(c1)OCCOCCOCCO2	1.89 µM
O=C1NC(=O)N(Cc2ccccc2)C(=O)/C1=C\C=C\c1ccco1	4 µM
COc1ccccc1NC(=O)c1cc2ccccc2o/c1=N\O	67.4 µM
CNc1cccccc1=S	0.51 µM
O=C(CSc1ccccc1)N1CCN(c2ccccc2)CC1	67.4 µM
CCOC(=O)C1=C(c2ccccc2)N=c2s/c(=C\c3ccco3)c(=O)n2C1c1cccs1 (stereo unspecified)	3.76 µM
Oc1ccc2c(c1)C1CCCC1(N1CCOCC1)O2 (stereo unspecified)	4.31 µM
Cc1cnnc2ccc3c(no[n+]3[O-])c12	4.71 µM

Moving on to another compound below.
INPUT: What IC50 value was documented for this compound, COc1ccc(Oc2nc(C)cc(C)c2C#N)cc1 ?
OUTPUT: 59.3 µM

----------
# target-entity: Virion infectivity factor (Human immunodeficiency virus type 1 group M subtype B (isolate BH10)) + Virion infectivity factor (Human immunodeficiency virus type 1 group M subtype B (isolate BRU/LAI)) + Virion infectivity factor (Human immunodeficiency virus type 1 group M subtype B (isolate PCV12)) + Virion infectivity factor (Human immunodeficiency virus type 1 group M subtype B (isolate HXB2)) + DNA dC->dU-editing enzyme APOBEC-3G (Homo sapiens) (UniProt P69720+P69721+P69722+P69723+Q9HC16)
# procedure-summary: HIV-1 Vif–A3G interaction blockers – biochemical, TR-FRET, GST-Vif 1-94, biotin-A3G peptide, dose response retest, primary screen (AID 1117319);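 also: Vif residues 1-94 fused to GST binding biotinylated APOBEC3G peptide 110-148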
# assay-conditions: TR-FRET GST-Vif / biotin-A3G peptide binding
Inconclusive results are not listed.
endpoint-label: pIC50
Notebook: values listed as pIC50 are -log10 of the concentration (mol/L).

compound	pIC50
O=C1Cc2cccc(=O)c(O)c2C(=O)O1	4.86
Cc1ccc2cc(CN(Cc3nnnn3Cc3ccco3)CC3CCCO3)c(=O)[nH]c2c1C (stereo not given)	4.46
CCOc1ccc(CCNC(=O)C2CC(C)=CCC2C(=O)O)cc1OCC (stereo not given)	4.25
CC(=O)Nc1ccc(N/C=C/C(=O)C(C)(C)C)cc1	4.39
C/C(N)=C(/C#N)C(=O)CSc1nnc(Nc2c(C)cccc2C)s1	4.76

INPUT: Any idea what pIC50 was measured for C=CCn1c(O)c(C(CC)=Nc2ccc(N(C)C)cc2)c(=O)[nH]c1=O ?
OUTPUT: 4.24

INPUT: # lookup: pIC50 of COc1ccc(CN2C(=O)NC(=O)/C(=C/c3ccc([N+](=O)[O-])o3)C2=O)cc1
OUTPUT: 5.35

INPUT: Given the compound COC(=O)COc1ccc(S(=O)(=O)Nc2cc(OC)ccc2OC)cc1 , what is its reported pIC50?
OUTPUT: 5.30

INPUT: # get_value(readout='pIC50', item= Nc1cccc2cc(S(=O)(=O)O)ccc12 )
OUTPUT: 4.46

INPUT: Please give the measured pIC50 for this compound: N#Cc1c(NC(=O)CSc2ncnc3sccc23)oc(-c2ccco2)c1-c1ccco1
OUTPUT: 6.02

INPUT: Need pIC50, item CN(CC(=O)Nc1c(Cl)cccc1Cl)C(=O)c1cccc(-n2cccc2)c1
OUTPUT: 4.50

INPUT: Request the reported pIC50 associated with NS(=O)(=O)c1ccc(N/N=C/c2ccc(O)c(O)c2O)c([N+](=O)[O-])c1
OUTPUT: 6.04

INPUT: Given O=C1CC(/C=C/c2ccco2)=Nc2ccccc2N1 , state its recorded pIC50.
OUTPUT: 5.77

INPUT: Look at this compound and give its reported pIC50. Cc1cc(O)c(C(C)C)cc1N=Cc1ccc([N+](=O)[O-])cc1
OUTPUT: 4.72

INPUT: Reported pIC50 for CC(C)C(C(=O)O)N1C(=O)/C(=C/C=C/c2ccco2)SC1=S (stereo not given) : what is it?
OUTPUT: 6.44

INPUT: Record request: pIC50 value, item CCOC(=O)C1=C(C)NC(C)=C(C(=O)OCC)C1c1cn(-c2ccccc2)nc1-c1ccco1
OUTPUT: 4.51

INPUT: Form field: reported pIC50 of Cc1cc(/C=C2\SC(=S)NC2=O)c(C)n1-c1ccccc1
OUTPUT: 4.85

INPUT: Find the recorded pIC50 belonging to CN1CCN(S(=O)(=O)c2ccc(NC(=S)NC(=O)c3ccc(Cl)cc3)cc2)CC1 and report it.
OUTPUT: 4.09
